Data origin: PubChem BioAssay (NCI)

Measured TGI values are reported for all entries that follow.
tested on: T-47D breast; experiment: NCI tumour cell line growth inhibition, 48 h

Q: Param readout= TGI; system= T-47D breast; entry= `CCOC(=O)/C=C1\SC(=Nc2ccc(C#N)cc2)N(CCN2C(=O)/C(=C/C(=O)OCC)SC2=Nc2ccc(C#N)cc2)C1=O` ; returns value.
Ans: 41.2 µM

Q: Param readout= TGI; system= T-47D breast; entry= `CC(C)(C)OC(=O)C1=C(C(=O)OC(C)(C)C)SC2(S1)C(C(=O)OC(C)(C)C)=C(C(=O)OC(C)(C)C)Sc1c2ssc1=O` ; returns value.
Ans: > 100 µM

Q: Param readout= TGI; system= T-47D breast; entry= N#CCCC(CC#N)N1CCN(CCO)CC1 (centres undefined) ; returns value.
Ans: > 100 µM

* * *

tested on: NCI-H522 lung; assay: NCI tumour cell line growth inhibition, 48 h
Classification field: enter MET for TGI values not below 4 µM, NOT MET for values below it.

Q: Given `COC(=O)[C@]12CC[C@@H](C)[C@H](C)[C@@H]1C1=CC[C@@H]3[C@@]4(C)C(C=O)=C[C@@](C)(COC(C)=O)[C@@H]4[C@H](O)C[C@@]3(C)[C@]1(C)CC2` , state whether its TGI is at least 4 µM.
Ans: MET

* * *

Measured GI50 values are reported for all entries that follow.
tested on: OVCAR-5 ovarian; experiment: NCI tumour cell line growth inhibition, 48 h

1) COc1ccc(/C=C(/C(=O)N2CCCC2)c2cc(OC)c(OC)c(OC)c2)cc1N ... 7.63 µM
2) C=C(CN1CCN(c2cccc(C(F)(F)F)c2)CC1)c1ccc(C(=O)Nc2ccccc2N)cc1 ... 6.63 µM
3) CC(CN)[C@@H]1CC[C@]2(CO)CC[C@]3(C)[C@H](CC[C@@H]4[C@@]5(C)CCC(NCCO)C(C)(C)[C@@H]5CC[C@]43C)[C@@H]12 (some centres undefined) ... 2.11 µM

Q: Look up GI50: `COc1cc2cc(Oc3ccc(NC(=O)Nc4ccccc4)cc3)c(C)nc2cc1OCCN1CCCCC1`
Ans: 6 µM

* * *

test system: MCF7 breast; test: NCI tumour cell line growth inhibition, 48 h
Measured log10 of TGI values are reported for all entries that follow.
The common logarithm of TGI in µM is what is listed.

Worked cases, log10 of TGI given:
1) Oc1ccc(-c2nc3cc(C(F)(F)F)ccc3n2CC2CCCN3CCCCC23)cc1 (stereo unspecified) ... 1.40
2) C/C(Cl)=N\OC(=O)Nc1ccccc1C(F)(F)F ... 1.79

Q: Look up log10 of TGI: C#CC(O)/C=C/CCCCCCC#CC/C=C\CC#CCCCCCC/C=C/C(O)C#C (stereo unspecified)
Ans: 1.41

Q: Look up log10 of TGI: `Cc1nc2c(nc1C)-c1c(c3c(n1Cc1ccccc1)C(=O)CCC3)C(=O)C2=O`
Ans: 0.73

Q: Look up log10 of TGI: `CC[C@@]1(O)C(=O)OCc2c1cc1n(c2=O)Cc2cc3cc(OC)ccc3nc2-1`
Ans: -0.71

Q: Look up log10 of TGI: `O=C1/C(=C/c2ccccc2)SC(=Nc2ccccc2)N1Nc1ccccc1`
Ans: 1.92

Q: Look up log10 of TGI: FC(F)(F)c1ccc2c(c1)nc(Cc1ccccc1)n2C[C@@H]1CCCN2CCCCC12 (stereo partly specified)
Ans: 1.46

Q: Look up log10 of TGI: COc1ccc(C2NCCc3c2[nH]c2ccccc32)cc1CN1CCN(c2ccc(F)cc2)CC1 (stereo unspecified)
Ans: 0.51

Q: Look up log10 of TGI: `C/C=C(/C)C(=O)O[C@@H]1c2c(C)coc2C[C@H]2CC[C@H](O)[C@H](C)[C@]21C`
Ans: 1.94

* * *

Measured TGI values are reported for all entries that follow.
tested on: 786-0 renal; assay: NCI tumour cell line growth inhibition, 48 h

Worked cases, TGI given:
1) COc1c2ccccc2c(O)c2c(=O)c(C(=O)O)cn(C)c12 ... > 100 µM
2) O=c1ccc2ccccc2o1 ... > 100 µM
3) COC(=O)c1ccc2n1C1CC3CC(CC2C3)C1 ... > 100 µM
4) O=c1cccc(C#Cc2ccccc2)o1 ... 15 µM

Q: Look up TGI: `Cc1cc(=O)oc2cc(OC(=O)Nc3ccc(Cl)c(Cl)c3)ccc12`
Ans: > 100 µM

Q: Look up TGI: `CC(=O)O[C@H]1[C@@H]2[C@@H]3[C@@H](C[C@H]1C)[C@@H](C)CO[C@@]1(C)CC/C=C(/C)C[C@@H]2O[C@@H]31`
Ans: > 100 µM

Q: Look up TGI: NCCNCC(O)CO (stereo not given)
Ans: > 100 µM

Q: Look up TGI: `CCc1cccc(CC)c1NC(=S)NC(=O)c1ccc(Br)cc1`
Ans: > 100 µM

Q: Look up TGI: `CCC(=O)OCc1ccc2oc(=O)c(C(=O)Oc3cncc(Cl)c3)cc2c1`
Ans: > 100 µM

Q: Look up TGI: `Cc1ccc(/C=C2\NC(=S)N(CN3CCOCC3)C2=O)cc1`
Ans: > 100 µM

Q: Look up TGI: `CCOC(=O)c1c(C)n(Cc2ccccc2)c2c1cc(O)c1[nH]c3c(c12)CCCC3`
Ans: 30.2 µM

Q: Look up TGI: `Cc1ccc(NC(=O)CC(=O)n2nc(-c3ccccc3)c(N=Nc3ccc(Cl)cc3)c2-c2ccccc2)cc1`
Ans: 45.2 µM

Q: Look up TGI: `Clc1ccc(OCc2nnc3sc(-c4ccc(-c5ccc(Cl)cc5Cl)o4)nn23)c(Cl)c1`
Ans: 26.1 µM

Q: Look up TGI: `Cc1nc2c(nc1C)-c1c(c3c(n1Cc1ccccc1)C(=O)CCC3)C(=O)C2=O`
Ans: > 100 µM

* * *

test system: NCI-H23 lung; experiment: NCI tumour cell line growth inhibition, 48 h
Measured TGI values are reported for all entries that follow.

Worked cases, TGI given:
1) O=C1c2cccnc2-c2nc(/C=C/c3ccccc3)cc3c2c1nc1ccccc13 ... 3.58 µM
2) Cc1cc(Cc2cc(C)c(NC(=O)C(=O)C3C(=O)NC(=S)NC3=O)c(C(C)C)c2)cc(C(C)C)c1NC(=O)C(=O)C1C(=O)NC(=S)NC1=O ... > 100 µM
3) COc1cc(/C=C2\N=C(c3ccccc3)N(C3Nc4cc5c(cc4S3)NC(N3C(=O)/C(=C/c4cc(OC)c(OC)c(OC)c4)N=C3c3ccccc3)S5)C2=O)cc(OC)c1OC (stereo not given) ... > 100 µM

Q: Look up TGI: `Clc1ccc(OCc2nnc3sc(-c4ccc(-c5ccc(Cl)cc5Cl)o4)nn23)c(Cl)c1`
Ans: 54 µM

Q: Look up TGI: Cc1ccc(S(=O)(=O)N2CCC3(C(/C=C/c4ccccc4)=Nc4ccccc43)C2c2ccccc2)cc1 (stereo not given)
Ans: > 100 µM

Q: Look up TGI: `C=C(CN1CCN(c2cccc(C(F)(F)F)c2)CC1)c1ccc(C(=O)Nc2ccccc2N)cc1`
Ans: > 32.9 µM

Q: Look up TGI: `Cc1ccc(N=C2CSc3nnc(-c4csc5c4CCCC5)n3N2)cc1`
Ans: > 50 µM

Q: Look up TGI: `Cc1ccc(S(=O)(=O)N2CCSCCSCCN(S(=O)(=O)c3ccc(C)cc3)CCN(S(=O)(=O)c3ccc(C)cc3)CC2)cc1`
Ans: > 100 µM

Q: Look up TGI: Cn1c(C(C#N)c2cc(Cl)ncn2)nc2ccccc21 (stereo not given)
Ans: > 100 µM

Q: Look up TGI: `CC1=C/C(=N/N2C(=O)/C(=C/c3ccc(Cl)cc3)N=C2c2ccccc2)CC(C)(C)C1`
Ans: > 100 µM

Q: Look up TGI: `Nc1ccc(C#Cc2cncnc2Nc2ccc(OCc3cccc(F)c3)c(Cl)c2)cc1`
Ans: > 25 µM

Q: Look up TGI: C=C(C)CCC1CCCCC(CN(C)C)C1=O (stereo not given)
Ans: > 100 µM

Q: Look up TGI: `C#CCN1CCN(C(=S)N/N=C(\C)c2ccccn2)CC1`
Ans: 3.99 µM

Q: Look up TGI: `O=C1Oc2ccccc2C(=O)/C1=C/N1C(=O)/C(=C/c2ccc([N+](=O)[O-])cc2)SC1=S`
Ans: 55 µM

Q: Look up TGI: NC1CC2C3CCC2C1C3=O (stereo not given)
Ans: > 100 µM

* * *

Measured TGI values are reported for all entries that follow.
test system: NCI-H460 lung; experiment: NCI tumour cell line growth inhibition, 48 h
// return numeric value only (unit: µM, not printed)

Worked cases, TGI given:
1) FC(F)(F)c1ccc2c(c1)nc(Cc1ccccc1)n2C[C@@H]1CCCN2CCCCC12 (some centres undefined) ... 31.9
2) COc1cc2c3c(n(CCCN4CCN(C)CC4)c(=O)c2cc1OC)-c1cc2c(cc1C3=O)OCO2 ... 28.2
3) O=C1/C(=C/c2ccccc2)SC(=Nc2ccccc2)N1Nc1ccccc1 ... 57.3

Q: Look up TGI: `CCN1/C(=C/c2ccc3ccccc3[n+]2CC)C=Cc2ccccc21`
Ans: 4.95
